Please consider the recorded IC50 for androgen receptor (Rattus norvegicus, UniProt P15207) in what follows.
Give the quantity in nM, number only.

Some solved cases for reference:
# smiles.code, units.text, IC50
rows = [
    ("CCCc1c(N[C@@H](c2nnc(-c3ccc(C#N)cc3)o2)[C@H](C)O)ccc(C#N)c1Cl", "nM", 0.3),
    ("Cc1c(N[C@@H](c2nnc(-c3ccc(F)cc3)o2)C(C)(C)O)ccc(C#N)c1C(F)(F)F", "nM", 40),
    ("Cc1c(N[C@@H](c2nnc(-c3ccc(F)cc3)o2)C(C)(C)O)ccc(C#N)c1Cl", "nM", 6),
    ("Cc1c(N[C@@H](c2nnc(-c3ccc(C#N)cc3)o2)C(C)(C)O)ccc(C#N)c1Cl", "nM", 4),
    ("Cc1c(N[C@@H](c2nnc(-c3ccc(C#N)cc3)o2)[C@H](O)C(F)(F)F)ccc(C#N)c1Cl", "nM", 290),
]

Moving on to another compound below.
Item Cc1c(N[C@@H](c2nnc(-c3ccc(C#N)cc3)o2)C(C)(C)O)ccc(C#N)c1C(F)(F)F with androgen receptor (Rattus norvegicus, UniProt P15207) - IC50? 30

Cited source: patent US8642632B2
